Measured values drawn from ChEMBL document CHEMBL3352122 for this set.

Molecular target: Sphingosine kinase 2 (Homo sapiens)
Test: Inhibition of human recombinant Sphk2 at 10 uM after 60 mins by ADP2 fluorescence intensity assay
Activity calls are given as the source filed them. No cut-off for these calls is given here.
REPORTED_ENDPOINT: inhibition

// solved cases for inhibition follow
[[record]]
entry_smiles = "CN(C)c1ccc(Nc2nc(C34CC5CC(CC(C5)C3)C4)cs2)cc1"
reported = "inactive"

[[record]]
entry_smiles = "COc1ccc(Nc2nc(-c3ccc(Cl)cc3)cs2)cc1OC"
reported = "inactive"

[[record]]
entry_smiles = "COc1ccc(Nc2nc(C34CC5CC(CC(C5)C3)C4)cs2)cc1OC"
reported = "inactive"

[[record]]
entry_smiles = "Oc1ccc(Nc2nc(-c3ccc(Cl)cc3)cs2)cc1"
reported = "15.5%"


Q: Which inhibition value belongs to Cc1sc(Nc2ccc(O)cc2)nc1-c1ccc(Cl)cc1 ?
A: inactive

Q: Which inhibition value belongs to CSc1ccc(Nc2nc(-c3ccc(Cl)cc3)cs2)cc1 ?
A: inactive

Q: Which inhibition value belongs to COc1cc(Nc2nc(C34CC5CC(CC(C5)C3)C4)c(C)s2)cc(OC)c1OC ?
A: 21.5%

Q: Which inhibition value belongs to CSc1ccc(Nc2nc(C34CC5CC(CC(C5)C3)C4)cs2)cc1 ?
A: 18.6%

Q: Which inhibition value belongs to COc1ccc(/C=C/C(=O)Nc2nc(-c3ccc(Cl)cc3)cs2)cc1OC ?
A: 31.7%

Q: Which inhibition value belongs to CN(C)c1ccc(Nc2nc(-c3ccc(Cl)cc3)cs2)cc1 ?
A: inactive

Q: Which inhibition value belongs to Cc1csc(Nc2nc(-c3ccc(Cl)cc3)c(C)s2)n1 ?
A: 19.2%

Q: Which inhibition value belongs to Oc1ccc(Nc2nc(-c3nccs3)cs2)cc1 ?
A: inactive

Q: Which inhibition value belongs to COc1ccc(Nc2nc(C34CC5CC(CC(C5)C3)C4)cs2)cc1 ?
A: inactive

Q: Which inhibition value belongs to COc1cc(/C=C/C(=O)Nc2nc(-c3ccc(Cl)cc3)cs2)cc(OC)c1OC ?
A: 32%

Q: Which inhibition value belongs to Cc1cc(CS(=O)(=O)c2ccccc2)cc(OCc2ccc(CN3CCC[C@@H]3CO)cc2)c1 ?
A: 14.7%

Q: Which inhibition value belongs to COc1cc(Nc2nc(C34CC5CC(CC(C5)C3)C4)cs2)cc(OC)c1OC ?
A: 20.8%

Q: Which inhibition value belongs to FC(F)(F)c1ccc(Nc2nc(-c3ccc(Cl)cc3)cs2)cc1 ?
A: inactive

Q: Which inhibition value belongs to CC(C)c1ccc(Nc2nc(C34CC5CC(CC(C5)C3)C4)cs2)cc1 ?
A: inactive

Q: Which inhibition value belongs to COc1ccccc1Nc1nc(C23CC4CC(CC(C4)C2)C3)cs1 ?
A: 19%

Q: Which inhibition value belongs to COc1ccc(Nc2nc(-c3ccc(Cl)cc3)cs2)cc1 ?
A: inactive

Q: Which inhibition value belongs to c1cc2c(cc1Nc1nc(C34CC5CC(CC(C5)C3)C4)cs1)OCO2 ?
A: 41.3%

Q: Which inhibition value belongs to Cc1csc(Nc2nc(-c3nccs3)cs2)n1 ?
A: 50%

Q: Which inhibition value belongs to COc1ccc(Nc2nc(-c3ccc(Cl)cc3)c(C)s2)cc1 ?
A: inactive
